biological target: AccA (Agrobacterium fabrum); assay: AccA isothermal titration microcalorimetry; format: binding, Agrobacterium tumefaciens C58; details: ITC, 20°C
endpoint.name: ΔH (cal/mol)
The response must be a number in cal/mol with no trailing unit.

Prompt: Give reported ΔH value for O=P(O)(OC1C(O)OCC(O)C1O)OC1C(CO)OC(CO)(OC2OC(CO)C(O)C(O)C2O)C1O (stereo not shown)
Response: -1.12E4

Prompt: Give reported ΔH value for O=C[C@H](OP(=O)(O)O)[C@@H](O)[C@@H](O)CO [L-arabinose-2-phosphate]
Response: -1.11E4

Prompt: Give reported ΔH value for O=C(OC1C(OP(=O)(O)OC2C(O)OCC(O)C2O)C(CO)OC1(CO)OC1OC(CO)C(O)C(O)C1O)c1ccccc1 (stereo not shown) [agrocinopine 3’-O-benzoate]
Response: -3.7E3

Prompt: Give reported ΔH value for CC(C)OP(=O)(O)O[C@H]1C(O)OC[C@H](O)[C@@H]1O (stereo partly drawn) [L-arabinose-2-isopropylphosphate]
Response: -1.56E4

---

target: AccA (Agrobacterium fabrum, UniProt Q52012); assay: AccA isothermal titration microcalorimetry; format: binding, Agrobacterium tumefaciens C58
Sequence (Q52012 entry or part of it): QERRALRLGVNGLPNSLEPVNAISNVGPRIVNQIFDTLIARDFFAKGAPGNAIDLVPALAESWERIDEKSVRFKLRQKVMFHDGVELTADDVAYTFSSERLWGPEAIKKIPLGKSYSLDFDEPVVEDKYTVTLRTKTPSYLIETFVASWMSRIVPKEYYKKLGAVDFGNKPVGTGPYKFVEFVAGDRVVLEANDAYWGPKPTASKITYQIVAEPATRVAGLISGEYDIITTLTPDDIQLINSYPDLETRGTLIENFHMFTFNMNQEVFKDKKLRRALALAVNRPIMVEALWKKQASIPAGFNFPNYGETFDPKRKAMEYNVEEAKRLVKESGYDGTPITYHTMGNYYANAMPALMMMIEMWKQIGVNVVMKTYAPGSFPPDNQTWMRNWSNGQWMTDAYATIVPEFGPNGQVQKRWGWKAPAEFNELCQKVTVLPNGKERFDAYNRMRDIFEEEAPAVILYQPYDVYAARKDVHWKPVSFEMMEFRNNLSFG
Answer each item with its documented pKd.
Note on units: pKd is unitless, being -log10 of a concentration expressed in mol/L.

Prompt: Give reported pKd value for CC(C)OP(=O)(O)O[C@H]1C(O)OC[C@H](O)[C@@H]1O (stereo partly drawn) [L-arabinose-2-isopropylphosphate]
Response: 5.66

Prompt: Give reported pKd value for O=P(O)(OC1C(O)OCC(O)C1O)OC1C(CO)OC(CO)(OC2OC(CO)C(O)C(O)C2O)C1O (stereo not shown)
Response: 6.52

Prompt: Give reported pKd value for O=C[C@H](OP(=O)(O)O)[C@@H](O)[C@@H](O)CO [L-arabinose-2-phosphate]
Response: 5.88

Prompt: Give reported pKd value for O=C(OC1C(OP(=O)(O)OC2C(O)OCC(O)C2O)C(CO)OC1(CO)OC1OC(CO)C(O)C(O)C1O)c1ccccc1 (stereo not shown) [agrocinopine 3’-O-benzoate]
Response: 5.12

---

molecular target: AccA (Agrobacterium fabrum); experiment: biochemical; type: binding, Agrobacterium tumefaciens C58; conditions: apparent KD (autofluorescence titration), AccA 2 μM, 22°C, 25 mM Tris-HCl pH 8.0, 150 mM NaCl, one binding site model; ND: no signal detected
endpoint.name: pKd
Note on units: pKd is unitless, being -log10 of a concentration expressed in mol/L.

Prompt: Enter pKd (test system AccA (Agrobacterium fabrum)) for O=C(OC1C(OP(=O)(O)OC2C(O)OCC(O)C2O)C(CO)OC1(CO)OC1OC(CO)C(O)C(O)C1O)c1ccccc1 (stereo not shown) [agrocinopine 3’-O-benzoate]
Response: 5.23

---

Answer each item with its documented K (association binding constant).
target: AccA (Agrobacterium fabrum); assay: AccA isothermal titration microcalorimetry; format: binding, Agrobacterium tumefaciens C58; conditions: ITC, 20°C; Ka in M-1
Format: numeric value only, no unit, no commentary.

Prompt: Give reported K (association binding constant) value for O=C[C@H](OP(=O)(O)O)[C@@H](O)[C@@H](O)CO [L-arabinose-2-phosphate]
Response: 7.54E5

Prompt: Give reported K (association binding constant) value for O=C(OC1C(OP(=O)(O)OC2C(O)OCC(O)C2O)C(CO)OC1(CO)OC1OC(CO)C(O)C(O)C1O)c1ccccc1 (stereo not shown) [agrocinopine 3’-O-benzoate]
Response: 1.33E5

Prompt: Give reported K (association binding constant) value for O=P(O)(OC1C(O)OCC(O)C1O)OC1C(CO)OC(CO)(OC2OC(CO)C(O)C(O)C2O)C1O (stereo not shown) [agrocinopine A]
Response: 2.99E6

Prompt: Give reported K (association binding constant) value for CC(C)OP(=O)(O)O[C@H]1C(O)OC[C@H](O)[C@@H]1O (stereo partly drawn) [L-arabinose-2-isopropylphosphate]
Response: 4.72E5
